Molecular target: recombinant human KRAS^G12D protein (Homo sapiens, UniProt P01116, G12D)
Sequence (P01116 1-188 isoform P01116-2 G12D): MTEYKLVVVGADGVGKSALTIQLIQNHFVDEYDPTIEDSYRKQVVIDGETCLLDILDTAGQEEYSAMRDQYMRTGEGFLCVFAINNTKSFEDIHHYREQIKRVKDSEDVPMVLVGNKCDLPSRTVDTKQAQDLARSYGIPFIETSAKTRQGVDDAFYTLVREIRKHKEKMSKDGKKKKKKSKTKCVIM
Test: Temperature-dependent Fluorescence (TdF) KRAS^G12D protein binding assay
Details: 6 μM KRAS^G12D Protein, 10 μM compound, Sypro Orange; Kd calculated from fluorescent shift
property.measured: Kd

Observe how each entry below is paired with its result.
| mol.smiles | property.measured | measurement |
| --- | --- | --- |
| Oc1cc(-c2ncc3c(N4CC5CCC(C4)N5)nc(OCC45CCCN4CCC5)cc3n2)c2c(Cl)cccc2c1 | Kd | > 5000 nM |
| C#Cc1c(F)ccc2cc(O)cc(-c3nc(Cl)c4c(N5CC6CCC(C5)N6)nc(OC[C@@H]5CCCN5C)nc4c3F)c12 | Kd | ≤ 500 nM |
| CCOc1c(F)ccc2cc(O)cc(-c3nc(OC)c4c(N5CC6CCC(C5)N6)nc(OC[C@@]56CCCN5C[C@H](F)C6)nc4c3F)c12 | Kd | ≤ 500 nM |
| CCc1cccc2cc(O)cc(-c3nc(O)c4c(N5CC6CCC(C5)N6)nc(OC[C@@]56CCCN5C[C@H](F)C6)nc4c3F)c12 | Kd | ≤ 500 nM |
| CCc1cccc2cc(O)cc(-c3nc(C(F)F)c4c(N5CC6CCC(C5)N6)nc(OC[C@@]56CCCN5C[C@H](F)C6)nc4c3F)c12 | Kd | ≤ 500 nM |

We next turn to a different compound, shown below.
Problem: Please report the recorded Kd for c1ccc2c(-c3ncc4c(N5CC6CCC(C5)N6)cc(OCC56CCCN5CCC6)nc4n3)cccc2c1 .
Solution: > 5000 nM
